For each entry below, report its TGI value.
# Tested on: CAKI-1
# assay_remarks: NCI-60 five-dose assay (renal cancer)
# Assay type: cell-based, human
# study_conditions: 48 h, SRB

Report TGI for COc1cc(NC2=C(Cl)C(=O)c3nc(C)ccc3C2=O)cc(OC)c1 [AQQ5]
3150 nM

Report TGI for COc1ccccc1NC1=C(Cl)C(=O)c2nc(C)ccc2C1=O [AQQ1]
2870 nM

Report TGI for CCOc1ccc(NC2=C(Cl)C(=O)c3nc(C)ccc3C2=O)cc1 [AQQ3]
2970 nM

With those in mind, consider the next compound.
Report TGI for CCOc1ccccc1NC1=C(Cl)C(=O)c2nc(C)ccc2C1=O [AQQ2]
2840 nM

Source: paper PMC11200585
